- target entity: Sigma-1 receptor
- protocol: Sigma-1 receptor competitive radioligand binding assay
- measurement conditions: read-out: Sigma-1 Receptor Affinity, Ki
hey, just use criterion met if measured Ki is less than 70 nM, otherwise criterion not met

Below, 5 molecules whose answers are already recorded.
C[C@H](CCc1ccc(O)c(OC(F)(F)F)c1)N1Cc2cc3c(cc2C1)OCO3 [compound 24]; criterion met
COc1cc2c(cc1OC)CN([C@@H](C)CCc1ccc(Cl)c(Cl)c1)C2 [compound 20]; criterion met
CC(C)Oc1cc(CCC(C)(C)N2Cc3ccc(S(C)(=O)=O)cc3C2)ccc1O [compound 70]; criterion met
C[C@H](CCc1ccc(Cl)c(Cl)c1)N1Cc2cccc(F)c2C1 [compound 9]; criterion met
COc1cc(CC[C@@H](C)N2Cc3cccc(F)c3C2)ccc1OCCO [compound 51]; criterion not met

Incoming: Hi there! Is Ki for COc1cc(CCC(C)(C)N2Cc3cccc(C(=O)NCCN(C)C)c3C2)ccc1O [compound 78] below 70 nM, do you know?
Outgoing: criterion not met

---

- target entity: Sigma-2 receptor
- protocol: Sigma-2 receptor competitive radioligand binding assay
- measurement conditions: read-out: Sigma-2 Receptor Affinity, Ki
measured property: pKi
FYI, pKi means -log10 of a concentration in mol per litre.

CC(C)Oc1cc(CCC(C)(C)N2Cc3cc4c(cc3C2)OCO4)ccc1O; 7.89
C[C@H](CCc1ccc(O)c(OC(F)(F)F)c1)N1Cc2cc3c(cc2C1)OCO3; 7.28
CC(C)(C)Oc1cc(CCC(C)(C)n2cc3ccc(S(C)(=O)=O)cc3c2)ccc1O; 7.00

In the following, a different compound is considered.
Incoming: # input compound: COc1cc(CCC(C)(C)N2Cc3cccc(S(C)(=O)=O)c3C2)ccc1O ; wanted: its pKi
Outgoing: 8.07

---

- target entity: potassium channel hERG (Homo sapiens (Human), UniProt Q12809)
- Sequence (Q12809 whole entry): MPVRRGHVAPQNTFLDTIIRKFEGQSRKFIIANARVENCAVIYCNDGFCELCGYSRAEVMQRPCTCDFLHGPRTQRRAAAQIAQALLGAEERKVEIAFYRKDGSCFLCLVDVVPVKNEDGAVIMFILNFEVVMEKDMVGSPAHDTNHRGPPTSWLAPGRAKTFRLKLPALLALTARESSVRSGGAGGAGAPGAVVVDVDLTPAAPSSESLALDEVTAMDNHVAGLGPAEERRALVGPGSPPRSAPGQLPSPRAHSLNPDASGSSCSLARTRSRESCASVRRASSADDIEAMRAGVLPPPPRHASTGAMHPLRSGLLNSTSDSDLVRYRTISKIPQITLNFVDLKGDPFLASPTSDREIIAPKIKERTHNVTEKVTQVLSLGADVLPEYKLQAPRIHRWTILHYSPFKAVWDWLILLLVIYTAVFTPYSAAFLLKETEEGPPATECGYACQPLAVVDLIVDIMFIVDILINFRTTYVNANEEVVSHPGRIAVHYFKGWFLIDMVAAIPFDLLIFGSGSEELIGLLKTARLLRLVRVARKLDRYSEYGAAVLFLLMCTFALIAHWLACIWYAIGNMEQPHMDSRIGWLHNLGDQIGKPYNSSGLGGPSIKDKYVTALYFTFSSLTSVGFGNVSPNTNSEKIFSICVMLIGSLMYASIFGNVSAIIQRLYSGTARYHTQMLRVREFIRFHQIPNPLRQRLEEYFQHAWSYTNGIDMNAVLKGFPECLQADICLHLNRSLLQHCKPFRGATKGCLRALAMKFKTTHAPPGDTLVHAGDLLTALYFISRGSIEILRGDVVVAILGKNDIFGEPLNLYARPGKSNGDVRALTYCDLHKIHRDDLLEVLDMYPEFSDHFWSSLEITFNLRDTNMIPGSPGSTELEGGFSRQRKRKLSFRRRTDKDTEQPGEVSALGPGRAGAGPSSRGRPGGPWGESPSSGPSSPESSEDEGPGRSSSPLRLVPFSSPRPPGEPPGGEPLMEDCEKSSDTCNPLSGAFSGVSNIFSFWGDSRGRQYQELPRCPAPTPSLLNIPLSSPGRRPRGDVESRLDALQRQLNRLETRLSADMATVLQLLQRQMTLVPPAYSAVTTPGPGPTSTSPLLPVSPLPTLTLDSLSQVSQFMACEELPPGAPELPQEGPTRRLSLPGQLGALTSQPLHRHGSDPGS
- protocol: In vitro toxicity, hERG inhibition
- Type: biochemical
Entries and their log10 IC50 values follow.
Lab note - IC50 converted to log10 from values in nM.

Take a look at these entries with their results.
COc1cc(CC[C@@H](C)N2Cc3cccc(F)c3C2)ccc1OCCO [compound 51]; 3.08
C[C@H](CCc1ccc(Cl)c(Cl)c1)N1Cc2cccc(F)c2C1 [compound 9]; 3.83
CC(C)Oc1cc(CCC(C)(C)N2Cc3ccc(S(C)(=O)=O)cc3C2)ccc1O [compound 70]; 3.49
CC(C)Oc1ccc(CCC(C)(C)N2Cc3ccc(F)cc3C2)cc1OC(C)C [compound 42]; 2.90
CC(C)COc1cc(CCC(C)(C)N2Cc3ccc(S(C)(=O)=O)cc3C2)ccc1O [compound 87]; 2.76
C[C@H](CCc1ccc(F)cc1)N1Cc2cc3c(cc2C1)OCO3 [compound 23]; 2.57

Attention now turns to another entry.
Incoming: Would you mind telling me what log10 IC50 value was observed for COc1cc(CCC(C)(C)N2Cc3ccc(F)cc3C2)ccc1OCCO [compound 45] ?
Outgoing: 2.34

---

- target entity: Sigma-2 receptor
- protocol: Sigma-2 receptor competitive radioligand binding assay
- Parameters: species or system rat
- measurement conditions: read-out: Sigma-2 Receptor Affinity, Ki
measured property: pKi
Convention used: pKi is expressed as -log10 of the molar concentration.

Incoming: Endpoint output: pKi of COc1cc(CC[C@@H](C)N2Cc3cccc(F)c3C2)ccc1OCCO . Value?
Outgoing: 6.10

Incoming: Give the measured pKi of COc1ccc(CCC(C)(C)N2Cc3cccc(C(=O)N4CCNCC4)c3C2)cc1OC .
Outgoing: 5.00

Incoming: Name the reported pKi value associated with the compound CC(C)(C#Cc1ccc2[nH]ncc2c1)N1Cc2ccc(S(C)(=O)=O)cc2C1
Outgoing: 5.00

Incoming: What does the record list as pKi for C[C@H](CCc1ccc(OC(=O)N(C)C)c(OC(F)(F)F)c1)N1Cc2ccc(F)cc2C1 ?
Outgoing: 6.85

---

- protocol: Mouse liver microsome (MLM) stability
- Assay type: in vitro ADME
- measurement conditions: mouse, microsomes
measured property: Mouse liver microsomes, MLM t½ (min)
Numeric answer only, unit min assumed.

Illustrative cases are given below, each with its answer.
C[C@H](CCc1ccc(O)c(OC(C)(C)C)c1)N1Cc2c(F)ccc(F)c2C1 [60A]; 5
COc1cc(CCC(C)(C)N2Cc3cccc(F)c3C2)ccc1OCCO; 29
CC(C)(C#Cc1ccc2[nH]ncc2c1)N1Cc2ccc(S(C)(=O)=O)cc2C1; 15.66

Incoming: So what does the record say about Mouse liver microsomes, MLM t½ for CC(C)(CCc1ccc(O)c(OC(F)(F)F)c1)N1Cc2c(F)ccc(F)c2C1 ?
Outgoing: 34

Incoming: Need Mouse liver microsomes, MLM t½ of COc1cc(CCC(C)(C)N2Cc3cccc(F)c3C2)ccc1O , thanks.
Outgoing: 21

Incoming: Returns the measured Mouse liver microsomes, MLM t½ for the input compound. Input: COc1ccc(CCC(C)(C)N2Cc3ccc(S(C)(=O)=O)cc3C2)cc1OC
Outgoing: 84.21

Incoming: Look up Mouse liver microsomes, MLM t½ for this compound: C[C@H](CCc1ccc(Cl)c(Cl)c1)N1Cc2ccc(C(F)(F)F)cc2C1
Outgoing: 40

Incoming: Reported Mouse liver microsomes, MLM t½ for COc1ccc(CCC(C)(C)N2Cc3cccc(C(=O)N4CCNCC4)c3C2)cc1OC : what is it?
Outgoing: 156.24

---

- Tested on: neuronal cultures
- protocol: Functional neuronal phenotype in neuronal cultures
- Assay type: cell-based
- Design: key: Antagonist: antagonists (block Abeta signaling); Agonist: agonists (block Abeta signaling with U-shaped dose-response curve and toxicity at high doses); Inactive: inactive (no effect in neuronal cultures)
measured property: neuronal phenotype

Solved entries (count: 10):
COc1cc(CCC(C)(C)N2Cc3ccc(N4CCNCC4)cc3C2)ccc1O; Inactive
COc1ccc(CCC(C)(C)N2Cc3ccc(S(C)(=O)=O)cc3C2)cc1; Inactive
C[C@H](CCc1ccc(Cl)c(Cl)c1)N1Cc2ccc(F)cc2C1.Cl; Antagonist
CC(C)(C)Oc1cc(CCC(C)(C)N2Cc3cccc(C(=O)O)c3C2)ccc1O; Inactive
COc1cc(CC[C@@H](C)N2Cc3ccc(S(C)(=O)=O)cc3C2)ccc1O; Inactive
CC(C)(C#Cc1ccc2[nH]ncc2c1)N1Cc2cccc(C(=O)N3CCNCC3)c2C1; Neuroactive
COC[C@H](CCc1ccc(Cl)c(Cl)c1)N1Cc2ccc(F)cc2C1; Inactive
COc1cc(CCC(C)N2Cc3ccc4ccccc4c3C2)ccc1O.Cl (stereo not drawn); Antagonist
CC(C)(CCc1ccc(Cl)c(Cl)c1)N1Cc2ccc(N3CCNCC3)cc2C1; Inactive
C[C@H](CCc1ccc(O)c(OC(C)(C)C)c1)N1Cc2ccc(S(C)(=O)=O)cc2C1; Inactive

Incoming: Recall the recorded neuronal phenotype for CC(C)(CCc1ccc(F)cc1)N1Cc2cccc(F)c2C1 with neuronal cultures and state it.
Outgoing: Antagonist

Incoming: Return neuronal phenotype measured with neuronal cultures given this molecule: C[C@H](CCc1ccc(Cl)c(Cl)c1)N1Cc2cccc(Cl)c2C1.Cl
Outgoing: Inactive

Incoming: Value wanted: neuronal phenotype (neuronal cultures) of entry COc1cc(CCC(C)(C)N2Cc3cccc(C(=O)NCCO)c3C2)ccc1O
Outgoing: Inactive

Incoming: Identify the measured neuronal phenotype of C[C@H](CCc1ccc(O)c(OC(C)(C)C)c1)N1Cc2c(F)ccc(F)c2C1 [60A] for neuronal cultures.
Outgoing: Antagonist

Incoming: Form field - read-out: neuronal phenotype; system: neuronal cultures; submitted item: COc1cc(CCC(C)(C)N2Cc3cccc(C(=O)N4CCOCC4)c3C2)ccc1O
Outgoing: Inactive

Incoming: Request: neuronal phenotype, test system neuronal cultures, entry COc1cc(CCC(C)(C)N2Cc3cccc(C(=O)NCCN(C)C)c3C2)ccc1O
Outgoing: Neuroactive

Incoming: Item C[C@H](CCc1ccc(O)c(OC(F)(F)F)c1)N1Cc2cc3c(cc2C1)OCO3 with neuronal cultures - neuronal phenotype?
Outgoing: Antagonist

---

- target entity: potassium channel hERG (Homo sapiens (Human))
- protocol: In vitro toxicity, hERG inhibition
- Type: biochemical
Below: a set of entries, each annotated with reported pIC50.
# pIC50 is unitless: minus log10 of the molar concentration; print number only

CC(C)(C)Oc1cc(CCC(C)(C)N2Cc3cccc(S(C)(=O)=O)c3C2)ccc1O; 4.72
COc1cc(CCC(C)(C)N2Cc3ccc(F)cc3C2)ccc1OC(=O)N(C)C; 5.36

Incoming: // pIC50 lookup, key: CC(C)Oc1cc(CC[C@@H](C)N2Cc3cc4c(cc3C2)OCO4)ccc1O
Outgoing: 5.49

Incoming: Could you tell me which pIC50 is on file for CC(C)(CCc1ccc(F)cc1)N1Cc2cc3c(cc2C1)OCO3 ?
Outgoing: 7.72

Incoming: Look up pIC50: COc1cc(CC[C@@H](C)N2Cc3cc4c(cc3C2)OCO4)ccc1O
Outgoing: 6.01

Incoming: Item CC(C)(C)Oc1cc(CCC(C)(C)N2Cc3cccc(C(=O)O)c3C2)ccc1O has what recorded pIC50?
Outgoing: 4.00

Incoming: # input molecule: COc1cc2c(cc1OC)CN(C(C)(C)CCc1ccc(OCCO)c(OC)c1)C2 ; wanted: its pIC50
Outgoing: 5.77

Incoming: pIC50 for COCCNC(=O)c1cccc2c1CN(C(C)(C)CCc1ccc(O)c(OC)c1)C2 ?
Outgoing: 5.18

Incoming: Looking for the measured pIC50 of CC(C)Oc1cc(CCC(C)(C)N2Cc3cccc(F)c3C2)ccc1O , can you help?
Outgoing: 5.02
